Experimental Target: pneumolysin (Ply) (Streptococcus pneumoniae serotype 2, UniProt Q04IN8)
Construct: made in house; host or cells: E. coli BL21(DE3)
Sequence (Q04IN8 whole entry): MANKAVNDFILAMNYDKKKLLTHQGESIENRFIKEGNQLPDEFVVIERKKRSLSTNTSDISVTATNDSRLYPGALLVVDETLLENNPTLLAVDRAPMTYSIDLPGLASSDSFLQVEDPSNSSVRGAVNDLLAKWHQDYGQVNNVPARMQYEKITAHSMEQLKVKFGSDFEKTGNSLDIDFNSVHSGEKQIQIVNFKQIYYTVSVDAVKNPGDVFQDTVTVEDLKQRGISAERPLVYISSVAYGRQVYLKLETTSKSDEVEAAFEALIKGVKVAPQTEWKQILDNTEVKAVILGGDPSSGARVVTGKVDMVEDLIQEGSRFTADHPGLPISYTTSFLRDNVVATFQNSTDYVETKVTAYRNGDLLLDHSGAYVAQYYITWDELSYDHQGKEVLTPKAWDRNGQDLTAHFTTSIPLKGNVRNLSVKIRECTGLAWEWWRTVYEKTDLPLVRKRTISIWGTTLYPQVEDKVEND
Assay Name: Precipitation assay of pneumolysin-tannin interaction
Format: binding
Condition Set: fold compared to vescalagin (=1)
Measurement Type: Precipitation Relative Power

Known Precipitation Relative Power results, listed for orientation:
[
  {
    "Compound": "O=C1OCC2OC(=O)c3cc(O)c(O)c(O)c3-c3c(O)c(O)c(O)c4c3C(=O)OC(C2OC(=O)c2cc(O)c(O)c(O)c2-c2c1cc(O)c(O)c2O)C1OC(=O)c2c-4c(O)c(O)c(O)c2C1O (stereo not shown) [Vescalagin]",
    "Precipitation Relative Power": 1
  },
  {
    "Compound": "O=C(OC[C@H]1O[C@@H](OC(=O)c2cc(O)c(O)c(O)c2)[C@H](OC(=O)c2cc(O)c(O)c(O)c2)[C@@H](OC(=O)c2cc(O)c(O)c(O)c2)[C@@H]1OC(=O)c1cc(O)c(O)c(O)c1)c1cc(O)c(O)c(O)c1 [PGG, 1,2,3,4,6-penta-O-galloyl-β-D-glucose]",
    "Precipitation Relative Power": 58
  }
]

Query: What does the record list as Precipitation Relative Power for O=C(O[C@H]1[C@@H]2OC(=O)c3cc(O)c(O)c(O)c3-c3c4cc(c(O)c3O)Oc3c(cc(O)c(O)c3O)C(=O)O[C@H]3C(O)O[C@@H]5COC(=O)c6cc(O)c(O)c(O)c6-c6c(cc(c(O)c6O)Oc6c(cc(O)c(O)c6O)C(=O)O[C@H]1C(O)O[C@@H]2COC4=O)C(=O)O[C@H]5[C@@H]3OC(=O)c1cc(O)c(O)c(O)c1)c1cc(O)c(O)c(O)c1 (stereo partly shown) [Oenothein B] ?
Reply: 1.6

Query: What does the record list as Precipitation Relative Power for O=C(O[C@@H]1O[C@@H]2COC(=O)c3cc(O)c(O)c(O)c3-c3c(cc(O)c(O)c3O)C(=O)O[C@H]2[C@H](OC(=O)c2cc(O)c(O)c(O)c2)[C@H]1OC(=O)c1cc(O)c(O)c(O)c1)c1cc(O)c(O)c(Oc2c(C(=O)O[C@H]3O[C@@H]4COC(=O)c5cc(O)c(O)c(O)c5-c5c(cc(O)c(O)c5O)C(=O)O[C@H]4[C@@H]4OC(=O)c5cc(O)c(O)c(O)c5-c5c(cc(O)c(O)c5O)C(=O)O[C@@H]34)cc(O)c(O)c2O)c1 [Gemin A] ?
Reply: 130
